Provenance of the data: the RNAGym collection of RNA variant scans (doi:10.1093/nar/gkz1192)

B1: CPEB3 Ribozyme (parent)
chain: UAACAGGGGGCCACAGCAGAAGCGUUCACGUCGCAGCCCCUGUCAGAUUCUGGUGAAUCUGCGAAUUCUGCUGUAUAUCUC

Variants of: B1
Assay: self-cleavage, relative activity (ratio to wild type); higher = more cleavage; in vitro, sequencing
quantity: self-cleavage
API doc: respond with a numeric literal and nothing else, no unit.

{"columns": ["sequenceCode", "self-cleavage"],
 "data": [
  ["UAACAGGGGGCCACAGCAGAAGCGUUCACGUCGCAGCCCAUGUCAGAUACUGGUGAAUCUGCGAAUUCUGCUGUAUAUCUC [C40A U49A]", 0.18]
]}

State the recorded self-cleavage for this entry: AAACAGGGGGCCACAGCAGAAGCGUUCACGUCGCAGCCCCUGUCAGAUUCUGGUGAAUCUGCGAAUCCUGCUGUAUAUCUC [U1A U67C]
0.18

What about this variant? UAACAGGGGGCCACAGCCGAAGCGUUCACGUCACAGCCCCUGUCAGAUUCUGGUGAAUCUGCGAAUUCUGCUGUAUAUCUC [A18C G33A]
0.42

Try this variant next: UAACAGGGGGCCACAGCAGAAGCGUUCAAGUCGCAGCCCCUGUCAGAUUCUGGUGGAUCUGCGAAUUCUGCUGUAUAUCUC [C29A A56G]
0.43

And for UAACAGGGGGCCACAGCAGACGCGUUCACGUCGCAGCCCCUGUCAGAUUCUGUUGAAUCUGCGAAUUCUGCUGUAUAUCUC [A21C G53U] ?
0.15

Try this variant too: UAACAGGGGGCCACAGCAGAAGCGUUCACGUCGCAGGCCCUGUCAGAUUCUGGUGAAUCUGCGAAUUCAGCUGUAUAUCUC [C37G U69A]
0.19

Another: UAGCAGGGGGCCACAGUAGAAGCGUUCACGUCGCAGCCCCUGUCAGAUUCUGGUGAAUCUGCGAAUUCUGCUGUAUAUCUC [A3G C17U]
0.85

# repeat for UAACAGGGGGACACGGCAGAAGCGUUCACGUCGCAGCCCCUGUCAGAUUCUGGUGAAUCUGCGAAUUCUGCUGUAUAUCUC [C11A A15G]
0.21

Request: UAACAGGGUGCCACAGCAGAAGCGUUCACGUCGCAGCCCCUGUCAGAUUCUGGUGAAUCUGCGAAUCCUGCUGUAUAUCUC [G9U U67C]
0.24

UAACAGGGGGCCACAGCAGAAGCGUUCACGUCGCAGCCCCUGUCAGAUUCUGGUGACUCUGCAAAUUCUGCUGUAUAUCUC [A57C G63A] ?
0.58
